- Test system: Spodoptera litura
- experiment_description: Pest control test against Spodoptera litura, cabbage leaf disk foliar spray
- Format: in vivo
- test_parameters: foliar treatment, 100 ppm
Could you please report measured % Mortality, Test Example2 Spodoptera litura for the items listed next?
Give the value; after it, write the unit.

Solved entries (count: 3):
Fc1cc(Cn2ccccc2=NC(=S)C(F)(F)F)cnc1Cl	60%
Fc1ccc(Cn2ccccc2=NC(=S)C(F)(F)F)cn1	30%
FC(F)(F)C(=S)N=c1ccccn1Cc1ccc(Br)nc1	20%

Next compound, % Mortality, Test Example2 Spodoptera litura to be filled in.
Prompt line: What value of % Mortality, Test Example2 Spodoptera litura has been reported for the following compound? FC(F)C(=S)N=c1ccccn1Cc1ccc(Cl)nc1
Response line: 55%
